# Test system: Escherichia coli TOP10
# procedure-text: shrunken log2 fold change of peptide-encoding DNA abundance (4.5 h post-induction vs induction); higher = less antimicrobial activity (less host growth inhibition)
# condition-set: time post-induction: 4.5 h; library: site-saturation at positions 5, 18, 19, 20
Is shrunken log2 fold change at least 0.02? Then Satisfied. If not, Not satisfied.

>  <polymer-sequence>
RRIRTRPPRLPRPRPRPDGGPRP

>  <assigned-label>
Not satisfied

$$$$
>  <polymer-sequence>
RRIRKRPPRLPRPRPRPDVTPRP

>  <assigned-label>
Satisfied

$$$$
>  <polymer-sequence>
RRIRGRPPRLPRPRPRPVMHPRP

>  <assigned-label>
Satisfied

$$$$
>  <polymer-sequence>
RRIRARPPRLPRPRPRPDINPRP

>  <assigned-label>
Satisfied

$$$$
>  <polymer-sequence>
RRIRHRPPRLPRPRPRPYYMPRP

>  <assigned-label>
Not satisfied

$$$$
>  <polymer-sequence>
RRIRWRPPRLPRPRPRPPNGPRP

>  <assigned-label>
Satisfied

$$$$
>  <polymer-sequence>
RRIRQRPPRLPRPRPRPHYGPRP

>  <assigned-label>
Not satisfied

$$$$
>  <polymer-sequence>
RRIRCRPPRLPRPRPRPRNLPRP

>  <assigned-label>
Not satisfied

$$$$
>  <polymer-sequence>
RRIRIRPPRLPRPRPRPLRQPRP

>  <assigned-label>
Satisfied

$$$$
>  <polymer-sequence>
RRIRFRPPRLPRPRPRPDEPPRP

>  <assigned-label>
Satisfied

$$$$
>  <polymer-sequence>
RRIRKRPPRLPRPRPRPMFMPRP

>  <assigned-label>
Not satisfied

$$$$
>  <polymer-sequence>
RRIRVRPPRLPRPRPRPHGHPRP

>  <assigned-label>
Not satisfied

$$$$
>  <polymer-sequence>
RRIRSRPPRLPRPRPRPVTNPRP

>  <assigned-label>
Not satisfied

$$$$
>  <polymer-sequence>
RRIRLRPPRLPRPRPRPRNGPRP

>  <assigned-label>
Not satisfied

$$$$
>  <polymer-sequence>
RRIRYRPPRLPRPRPRPGSTPRP

>  <assigned-label>
Not satisfied

$$$$
>  <polymer-sequence>
RRIRQRPPRLPRPRPRPSFCPRP

>  <assigned-label>
Satisfied

$$$$
>  <polymer-sequence>
RRIRIRPPRLPRPRPRPLPGPRP

>  <assigned-label>
Not satisfied

$$$$
>  <polymer-sequence>
RRIRLRPPRLPRPRPRPNQLPRP

>  <assigned-label>
Not satisfied

$$$$
>  <polymer-sequence>
RRIRSRPPRLPRPRPRPMEKPRP

>  <assigned-label>
Not satisfied

$$$$
>  <polymer-sequence>
RRIRHRPPRLPRPRPRPLNFPRP

>  <assigned-label>
Not satisfied

$$$$
>  <polymer-sequence>
RRIRRRPPRLPRPRPRPSTVPRP

>  <assigned-label>
Not satisfied

$$$$
>  <polymer-sequence>
RRIRSRPPRLPRPRPRPSRHPRP

>  <assigned-label>
Satisfied

$$$$
>  <polymer-sequence>
RRIRHRPPRLPRPRPRPEDSPRP

>  <assigned-label>
Satisfied

$$$$
>  <polymer-sequence>
RRIRSRPPRLPRPRPRPAPRPRP

>  <assigned-label>
Satisfied

$$$$
>  <polymer-sequence>
RRIRFRPPRLPRPRPRPVWQPRP

>  <assigned-label>
Not satisfied

$$$$
>  <polymer-sequence>
RRIRSRPPRLPRPRPRPRMRPRP

>  <assigned-label>
Satisfied

$$$$
>  <polymer-sequence>
RRIRARPPRLPRPRPRPQICPRP

>  <assigned-label>
Satisfied

$$$$
>  <polymer-sequence>
RRIRIRPPRLPRPRPRPQGFPRP

>  <assigned-label>
Not satisfied

$$$$
>  <polymer-sequence>
RRIRDRPPRLPRPRPRPRDGPRP

>  <assigned-label>
Satisfied

$$$$
>  <polymer-sequence>
RRIRGRPPRLPRPRPRPMNRPRP

>  <assigned-label>
Satisfied

$$$$
>  <polymer-sequence>
RRIRWRPPRLPRPRPRPMMQPRP

>  <assigned-label>
Satisfied

$$$$
>  <polymer-sequence>
RRIRKRPPRLPRPRPRPDFQPRP

>  <assigned-label>
Satisfied

$$$$
>  <polymer-sequence>
RRIRARPPRLPRPRPRPMRKPRP

>  <assigned-label>
Not satisfied

$$$$
>  <polymer-sequence>
RRIRDRPPRLPRPRPRPRDCPRP

>  <assigned-label>
Satisfied

$$$$
>  <polymer-sequence>
RRIRFRPPRLPRPRPRPILAPRP

>  <assigned-label>
Not satisfied

$$$$
>  <polymer-sequence>
RRIRDRPPRLPRPRPRPLHLPRP

>  <assigned-label>
Not satisfied

$$$$
>  <polymer-sequence>
RRIRKRPPRLPRPRPRPLNGPRP

>  <assigned-label>
Satisfied

$$$$
>  <polymer-sequence>
RRIRARPPRLPRPRPRPVYWPRP

>  <assigned-label>
Satisfied

$$$$
>  <polymer-sequence>
RRIRWRPPRLPRPRPRPTTKPRP

>  <assigned-label>
Satisfied

$$$$
>  <polymer-sequence>
RRIRYRPPRLPRPRPRPNKWPRP

>  <assigned-label>
Not satisfied

$$$$
>  <polymer-sequence>
RRIRNRPPRLPRPRPRPDGFPRP

>  <assigned-label>
Not satisfied

$$$$
>  <polymer-sequence>
RRIRQRPPRLPRPRPRPEMNPRP

>  <assigned-label>
Satisfied

$$$$
>  <polymer-sequence>
RRIRWRPPRLPRPRPRPPQWPRP

>  <assigned-label>
Satisfied

$$$$
>  <polymer-sequence>
RRIRNRPPRLPRPRPRPVLQPRP

>  <assigned-label>
Not satisfied

$$$$
>  <polymer-sequence>
RRIRHRPPRLPRPRPRPGGQPRP

>  <assigned-label>
Satisfied

$$$$
>  <polymer-sequence>
RRIRARPPRLPRPRPRPYHEPRP

>  <assigned-label>
Not satisfied

$$$$
>  <polymer-sequence>
RRIRVRPPRLPRPRPRPEFKPRP

>  <assigned-label>
Satisfied

$$$$
>  <polymer-sequence>
RRIRKRPPRLPRPRPRPIEVPRP

>  <assigned-label>
Satisfied

$$$$
>  <polymer-sequence>
RRIRGRPPRLPRPRPRPYVPPRP

>  <assigned-label>
Not satisfied

$$$$
>  <polymer-sequence>
RRIRKRPPRLPRPRPRPDQCPRP

>  <assigned-label>
Satisfied

$$$$
>  <polymer-sequence>
RRIRHRPPRLPRPRPRPSERPRP

>  <assigned-label>
Not satisfied

$$$$
>  <polymer-sequence>
RRIRRRPPRLPRPRPRPVTMPRP

>  <assigned-label>
Satisfied

$$$$
>  <polymer-sequence>
RRIRHRPPRLPRPRPRPLYGPRP

>  <assigned-label>
Not satisfied

$$$$
>  <polymer-sequence>
RRIRIRPPRLPRPRPRPDCHPRP

>  <assigned-label>
Not satisfied

$$$$
>  <polymer-sequence>
RRIRGRPPRLPRPRPRPTDDPRP

>  <assigned-label>
Satisfied

$$$$
>  <polymer-sequence>
RRIRPRPPRLPRPRPRPDREPRP

>  <assigned-label>
Satisfied

$$$$
>  <polymer-sequence>
RRIRSRPPRLPRPRPRPFQVPRP

>  <assigned-label>
Not satisfied

$$$$
>  <polymer-sequence>
RRIRVRPPRLPRPRPRPFFFPRP

>  <assigned-label>
Satisfied

$$$$
>  <polymer-sequence>
RRIRSRPPRLPRPRPRPWELPRP

>  <assigned-label>
Satisfied

$$$$
>  <polymer-sequence>
RRIRVRPPRLPRPRPRPGYCPRP

>  <assigned-label>
Not satisfied

$$$$
>  <polymer-sequence>
RRIRQRPPRLPRPRPRPIQSPRP

>  <assigned-label>
Not satisfied

$$$$
>  <polymer-sequence>
RRIRARPPRLPRPRPRPLWYPRP

>  <assigned-label>
Not satisfied

$$$$

---

# Test system: Escherichia coli TOP10
# procedure-text: shrunken log2 fold change of peptide-encoding DNA abundance (4.5 h post-induction vs induction); higher = less antimicrobial activity (less host growth inhibition)
# condition-set: time post-induction: 4.5 h; library: site-saturation at positions 5, 18, 19, 20
// shrunken log2 fold change lookup, one value per entry

>  <polymer-sequence>
RRIRKRPPRLPRPRPRPNISPRP

>  <measured-target>
Escherichia coli TOP10

>  <shrunken log2 fold change>
-0.102

$$$$
>  <polymer-sequence>
RRIRCRPPRLPRPRPRPEILPRP

>  <measured-target>
Escherichia coli TOP10

>  <shrunken log2 fold change>
-0.0141

$$$$
>  <polymer-sequence>
RRIRSRPPRLPRPRPRPPHWPRP

>  <measured-target>
Escherichia coli TOP10

>  <shrunken log2 fold change>
0.5

$$$$
>  <polymer-sequence>
RRIRDRPPRLPRPRPRPGEDPRP

>  <measured-target>
Escherichia coli TOP10

>  <shrunken log2 fold change>
-0.000687

$$$$
>  <polymer-sequence>
RRIRGRPPRLPRPRPRPAAMPRP

>  <measured-target>
Escherichia coli TOP10

>  <shrunken log2 fold change>
1.54

$$$$
>  <polymer-sequence>
RRIRTRPPRLPRPRPRPVHMPRP

>  <measured-target>
Escherichia coli TOP10

>  <shrunken log2 fold change>
-0.123

$$$$
>  <polymer-sequence>
RRIRARPPRLPRPRPRPEVIPRP

>  <measured-target>
Escherichia coli TOP10

>  <shrunken log2 fold change>
0.349

$$$$
>  <polymer-sequence>
RRIRSRPPRLPRPRPRPMGAPRP

>  <measured-target>
Escherichia coli TOP10

>  <shrunken log2 fold change>
0.188

$$$$
>  <polymer-sequence>
RRIRRRPPRLPRPRPRPLLEPRP

>  <measured-target>
Escherichia coli TOP10

>  <shrunken log2 fold change>
0.534

$$$$
>  <polymer-sequence>
RRIRYRPPRLPRPRPRPICWPRP

>  <measured-target>
Escherichia coli TOP10

>  <shrunken log2 fold change>
0.142

$$$$
>  <polymer-sequence>
RRIRERPPRLPRPRPRPSLKPRP

>  <measured-target>
Escherichia coli TOP10

>  <shrunken log2 fold change>
-0.217

$$$$
>  <polymer-sequence>
RRIRFRPPRLPRPRPRPAEWPRP

>  <measured-target>
Escherichia coli TOP10

>  <shrunken log2 fold change>
0.512

$$$$
>  <polymer-sequence>
RRIRSRPPRLPRPRPRPVMAPRP

>  <measured-target>
Escherichia coli TOP10

>  <shrunken log2 fold change>
0.304

$$$$
>  <polymer-sequence>
RRIRPRPPRLPRPRPRPMHAPRP

>  <measured-target>
Escherichia coli TOP10

>  <shrunken log2 fold change>
0.159

$$$$
>  <polymer-sequence>
RRIRDRPPRLPRPRPRPCGKPRP

>  <measured-target>
Escherichia coli TOP10

>  <shrunken log2 fold change>
0.2

$$$$
>  <polymer-sequence>
RRIRNRPPRLPRPRPRPLCWPRP

>  <measured-target>
Escherichia coli TOP10

>  <shrunken log2 fold change>
-0.198

$$$$
>  <polymer-sequence>
RRIRYRPPRLPRPRPRPLGKPRP

>  <measured-target>
Escherichia coli TOP10

>  <shrunken log2 fold change>
-0.192

$$$$
>  <polymer-sequence>
RRIRWRPPRLPRPRPRPMQCPRP

>  <measured-target>
Escherichia coli TOP10

>  <shrunken log2 fold change>
0.0434

$$$$
>  <polymer-sequence>
RRIRSRPPRLPRPRPRPVNYPRP

>  <measured-target>
Escherichia coli TOP10

>  <shrunken log2 fold change>
-0.0921

$$$$
>  <polymer-sequence>
RRIRFRPPRLPRPRPRPMQAPRP

>  <measured-target>
Escherichia coli TOP10

>  <shrunken log2 fold change>
0.119

$$$$
>  <polymer-sequence>
RRIRVRPPRLPRPRPRPICDPRP

>  <measured-target>
Escherichia coli TOP10

>  <shrunken log2 fold change>
-0.0949

$$$$
>  <polymer-sequence>
RRIRLRPPRLPRPRPRPTDWPRP

>  <measured-target>
Escherichia coli TOP10

>  <shrunken log2 fold change>
0.947

$$$$
>  <polymer-sequence>
RRIRKRPPRLPRPRPRPAHGPRP

>  <measured-target>
Escherichia coli TOP10

>  <shrunken log2 fold change>
0.502

$$$$
>  <polymer-sequence>
RRIRDRPPRLPRPRPRPPVWPRP

>  <measured-target>
Escherichia coli TOP10

>  <shrunken log2 fold change>
1.04

$$$$
>  <polymer-sequence>
RRIRRRPPRLPRPRPRPRARPRP

>  <measured-target>
Escherichia coli TOP10

>  <shrunken log2 fold change>
0.618

$$$$
>  <polymer-sequence>
RRIRTRPPRLPRPRPRPWITPRP

>  <measured-target>
Escherichia coli TOP10

>  <shrunken log2 fold change>
0.0633

$$$$
>  <polymer-sequence>
RRIRPRPPRLPRPRPRPWNKPRP

>  <measured-target>
Escherichia coli TOP10

>  <shrunken log2 fold change>
0.163

$$$$
>  <polymer-sequence>
RRIRTRPPRLPRPRPRPRFVPRP

>  <measured-target>
Escherichia coli TOP10

>  <shrunken log2 fold change>
-0.279

$$$$
>  <polymer-sequence>
RRIRFRPPRLPRPRPRPPKHPRP

>  <measured-target>
Escherichia coli TOP10

>  <shrunken log2 fold change>
0.292

$$$$
>  <polymer-sequence>
RRIRYRPPRLPRPRPRPSQVPRP

>  <measured-target>
Escherichia coli TOP10

>  <shrunken log2 fold change>
-0.518

$$$$
>  <polymer-sequence>
RRIRERPPRLPRPRPRPPHWPRP

>  <measured-target>
Escherichia coli TOP10

>  <shrunken log2 fold change>
0.223

$$$$
>  <polymer-sequence>
RRIRLRPPRLPRPRPRPGQCPRP

>  <measured-target>
Escherichia coli TOP10;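 further: peptides expressed intracellularly from a pBAD plasmid library in pooled LB shake-flask culture, induced with 0.3% L-arabinose, DNA abundance read by NGS, three biological replicates, DESeq2 with apeglm shrinkage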

>  <shrunken log2 fold change>
-0.0373

$$$$
